- protocol_details: Mouse pharmacokinetic study, plasma and brain by LC-MS
- condition_summary: female, BALB/c nude, mouse, plasma, po, 25 mg/kg
endpoint_label: AUC(0-t) (µM·h)
Kindly answer with a numeric value in µM·h, unit omitted.

Input C=CC(=O)Nc1cc(Nc2nccc(-c3cn(C4CC4)c4ccccc34)n2)c(OC)cc1N(C)CCN(C)C [almonertinib] . Output AUC(0-t): 16.9

###

- system_tested: ABCB1 (Homo sapiens)
- Construct: expressed in transfected cells; host or cells: MDCK (canine kidney) cells transduced with lentivirus from pLVX-CMV-ABCB1
- protocol_details: Bidirectional transport across ABCB1-MDCK monolayers
- Type: in vitro ADME
- condition_summary: human, MDCK-MDR1; ABCB1-MDCK; 20 μM; read-out: efflux ratio (ER)
endpoint_label: efflux ratio at 20 μM
Answer with a bare number; do not write a unit.

Value of measured efflux ratio at 20 μM for the entry C=CC(=O)Nc1cc(Nc2nccc(-c3cn(C4CC4)c4ccccc34)n2)c(OC)cc1N(C)CCN(C)C : 1.84

###

- system_tested: BCRP (Homo sapiens)
- Construct: expressed in transfected cells; host or cells: MDCK (canine kidney) cells transduced with lentivirus from pLVX-CMV-BCRP
- protocol_details: Bidirectional transport across BCRP-MDCK monolayers
- Assay type: in vitro ADME
- condition_summary: human; BCRP-MDCK; 20 μM; read-out: efflux ratio (ER)
endpoint_label: efflux ratio at 20 μM
The answer should be a number; do not append a unit.

// C=CC(=O)Nc1cc(Nc2nccc(-c3cn(C4CC4)c4ccccc34)n2)c(OC)cc1N(C)CCN(C)C : efflux ratio at 20 μM value = 1.53

###

- protocol_details: Mouse pharmacokinetic study, plasma and brain by LC-MS
- condition_summary: female, BALB/c nude, mouse, brain, po, 25 mg/kg
endpoint_label: Cmax (µM)
Numeric answer only, unit µM assumed.

Quick note, Cmax for C=CC(=O)Nc1cc(Nc2nccc(-c3cn(C4CC4)c4ccccc34)n2)c(OC)cc1N(C)CCN(C)C [almonertinib] landed at 5.36

###

- protocol_details: Mouse pharmacokinetic study, plasma and brain by LC-MS
- condition_summary: female, BALB/c nude, mouse, plasma, po, 25 mg/kg
endpoint_label: Cmax
Please report the result as a number followed by the unit.

response.value for C=CC(=O)Nc1cc(Nc2nccc(-c3cn(C4CC4)c4ccccc34)n2)c(OC)cc1N(C)CCN(C)C (field: Cmax) = 6.41 µM

###

- system_tested: BCRP (Homo sapiens, UniProt Q9UNQ0)
- Construct: expressed in transfected cells; host or cells: MDCK (canine kidney) cells transduced with lentivirus from pLVX-CMV-BCRP
- Sequence (Q9UNQ0 whole entry): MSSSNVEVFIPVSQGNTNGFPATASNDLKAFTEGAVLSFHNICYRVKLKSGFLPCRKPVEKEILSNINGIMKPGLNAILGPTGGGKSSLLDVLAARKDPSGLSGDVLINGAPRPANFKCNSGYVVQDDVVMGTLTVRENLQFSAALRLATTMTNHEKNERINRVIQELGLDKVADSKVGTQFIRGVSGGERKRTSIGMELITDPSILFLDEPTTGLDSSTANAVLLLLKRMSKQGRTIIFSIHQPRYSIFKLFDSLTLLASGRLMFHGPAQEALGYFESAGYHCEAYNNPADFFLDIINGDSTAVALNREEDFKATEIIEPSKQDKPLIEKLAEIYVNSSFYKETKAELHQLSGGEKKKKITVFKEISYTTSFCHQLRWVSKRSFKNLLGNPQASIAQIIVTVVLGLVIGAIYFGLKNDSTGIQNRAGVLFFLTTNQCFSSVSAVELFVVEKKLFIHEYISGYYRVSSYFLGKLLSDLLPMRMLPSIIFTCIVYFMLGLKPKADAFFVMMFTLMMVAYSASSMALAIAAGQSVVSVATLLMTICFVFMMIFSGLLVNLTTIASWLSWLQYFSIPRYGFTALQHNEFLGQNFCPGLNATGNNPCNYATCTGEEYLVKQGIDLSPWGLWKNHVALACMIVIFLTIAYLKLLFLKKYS
- protocol_details: Bidirectional transport across BCRP-MDCK monolayers
- Assay type: in vitro ADME
- condition_summary: human; BCRP-MDCK; 1 μM; read-out: efflux ratio (ER)
endpoint_label: efflux ratio at 1 μM

Measured efflux ratio at 1 μM (BCRP (Homo sapiens, UniProt Q9UNQ0)), entry C=CC(=O)Nc1cc(Nc2nccc(-c3cn(C4CC4)c4ccccc34)n2)c(OC)cc1N(C)CCN(C)C : 4.62

###

- protocol_details: Mouse pharmacokinetic study, plasma and brain by LC-MS
- condition_summary: female, BALB/c nude, mouse, brain, po, 25 mg/kg
endpoint_label: AUC(0-t) (µM·h)
Answer in µM·h, number only, no unit symbol.

The compound listed as C=CC(=O)Nc1cc(Nc2nccc(-c3cn(C4CC4)c4ccccc34)n2)c(OC)cc1N(C)CCN(C)C [almonertinib] has a reported AUC(0-t) of 30.6

###

- protocol_details: Bidirectional transport across MDCK monolayers
- Type: in vitro ADME, canine
- condition_summary: dog, 20 μM, read-out: efflux ratio (ER)
endpoint_label: efflux ratio at 20 μM
API doc: respond with a numeric literal and nothing else, no unit.

Entry C=CC(=O)Nc1cc(Nc2nccc(-c3cn(C4CC4)c4ccccc34)n2)c(OC)cc1N(C)CCN(C)C [almonertinib] , efflux ratio at 20 μM reported as 1.02

###

- protocol_details: Bidirectional transport across MDCK monolayers
- Assay type: in vitro ADME, canine
- condition_summary: dog, 1 μM, read-out: efflux ratio (ER)
endpoint_label: efflux ratio at 1 μM
Form: value (number only, do not type unit).

efflux ratio at 1 μM reading for C=CC(=O)Nc1cc(Nc2nccc(-c3cn(C4CC4)c4ccccc34)n2)c(OC)cc1N(C)CCN(C)C : 1.1

###

- system_tested: ABCB1 (Homo sapiens, UniProt P08183)
- Construct: expressed in transfected cells; host or cells: MDCK (canine kidney) cells transduced with lentivirus from pLVX-CMV-ABCB1
- Sequence (P08183 whole entry): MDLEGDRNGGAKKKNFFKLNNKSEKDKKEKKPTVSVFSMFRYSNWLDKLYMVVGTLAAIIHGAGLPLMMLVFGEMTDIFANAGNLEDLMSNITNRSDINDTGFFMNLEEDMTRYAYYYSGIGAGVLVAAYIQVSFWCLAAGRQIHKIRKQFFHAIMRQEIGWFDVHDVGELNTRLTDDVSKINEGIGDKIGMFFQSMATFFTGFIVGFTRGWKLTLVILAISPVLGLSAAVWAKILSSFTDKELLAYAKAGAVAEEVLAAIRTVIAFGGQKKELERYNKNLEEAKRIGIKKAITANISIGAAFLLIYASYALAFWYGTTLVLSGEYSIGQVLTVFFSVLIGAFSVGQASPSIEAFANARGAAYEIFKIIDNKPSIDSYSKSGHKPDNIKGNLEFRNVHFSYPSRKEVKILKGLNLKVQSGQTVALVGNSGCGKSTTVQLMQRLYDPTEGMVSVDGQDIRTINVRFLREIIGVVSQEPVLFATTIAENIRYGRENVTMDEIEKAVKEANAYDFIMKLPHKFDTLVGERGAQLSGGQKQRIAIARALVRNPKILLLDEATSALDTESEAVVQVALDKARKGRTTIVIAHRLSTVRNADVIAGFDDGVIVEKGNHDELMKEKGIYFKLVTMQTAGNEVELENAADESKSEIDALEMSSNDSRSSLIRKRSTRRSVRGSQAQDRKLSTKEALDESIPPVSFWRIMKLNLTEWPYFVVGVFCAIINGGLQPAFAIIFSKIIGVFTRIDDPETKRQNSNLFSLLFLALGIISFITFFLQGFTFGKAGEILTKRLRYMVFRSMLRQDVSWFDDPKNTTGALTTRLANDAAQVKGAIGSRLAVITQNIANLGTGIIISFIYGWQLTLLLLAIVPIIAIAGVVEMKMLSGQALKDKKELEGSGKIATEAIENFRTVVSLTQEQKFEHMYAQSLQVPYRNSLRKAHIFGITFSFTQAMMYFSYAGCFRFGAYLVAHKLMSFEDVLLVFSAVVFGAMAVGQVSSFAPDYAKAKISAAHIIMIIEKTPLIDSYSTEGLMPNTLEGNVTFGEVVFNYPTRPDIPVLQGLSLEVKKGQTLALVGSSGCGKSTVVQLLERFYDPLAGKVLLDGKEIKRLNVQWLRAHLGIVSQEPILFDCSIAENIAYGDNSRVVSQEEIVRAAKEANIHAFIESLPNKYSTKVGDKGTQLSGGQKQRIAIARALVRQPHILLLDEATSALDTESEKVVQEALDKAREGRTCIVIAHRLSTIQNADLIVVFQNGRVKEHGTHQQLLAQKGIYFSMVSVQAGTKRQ
- protocol_details: Bidirectional transport across ABCB1-MDCK monolayers
- Type: in vitro ADME
- condition_summary: human, MDCK-MDR1; ABCB1-MDCK; 10 μM; read-out: efflux ratio (ER)
endpoint_label: efflux ratio at 10 μM
# respond with the number and nothing more

So, C=CC(=O)Nc1cc(Nc2nccc(-c3cn(C4CC4)c4ccccc34)n2)c(OC)cc1N(C)CCN(C)C [almonertinib] ? Its efflux ratio at 10 μM was 2.75

###

- protocol_details: Mouse pharmacokinetic study, plasma and brain by LC-MS
- condition_summary: female, BALB/c nude, mouse, plasma, po, 25 mg/kg, tmax; almonertinib 25 mg/kg oral
endpoint_label: tmax (min)
Kindly provide the numeric value in min only, without the unit symbol.

Measured tmax of C=CC(=O)Nc1cc(Nc2nccc(-c3cn(C4CC4)c4ccccc34)n2)c(OC)cc1N(C)CCN(C)C : 30

###

- protocol_details: Bidirectional transport across MDCK monolayers
- Assay type: in vitro ADME, canine
- condition_summary: dog, 10 μM, read-out: efflux ratio (ER)
endpoint_label: efflux ratio at 10 μM
Just the number, please, no unit after it.

Looking up C=CC(=O)Nc1cc(Nc2nccc(-c3cn(C4CC4)c4ccccc34)n2)c(OC)cc1N(C)CCN(C)C , I see its efflux ratio at 10 μM listed as 1.42

###

- protocol_details: Mouse pharmacokinetic study, plasma and brain by LC-MS
- condition_summary: female, BALB/c nude, mouse, brain/plasma, po, 25 mg/kg
endpoint_label: Kp
Give the figure by itself; no unit, no explanation.

Kp reading for C=CC(=O)Nc1cc(Nc2nccc(-c3cn(C4CC4)c4ccccc34)n2)c(OC)cc1N(C)CCN(C)C : 1.82

FYI, the data here is from paper PMC8497791.
